- Test system: SF-539
- experiment summary: NCI tumour cell line growth inhibition, 48 h
Activity calls are given as the source filed them. Rule as the data show it: active = GI50 up to about 1.1 µM and inactive = higher.
Exercise: state measured GI50 for each of the compounds provided.

Worked examples follow.
>  <compound>
O=C(/C=C/c1cccc2ccccc12)c1ccccc1

>  <GI50>
3.57 µM (inactive)

$$$$
>  <compound>
O=C(Cc1nc2ccccc2s1)NC12CC3CC(CC(C3)C1)C2

>  <GI50>
> 100 µM (inactive)

$$$$
>  <compound>
CC(=O)Nc1ccc(Sc2nnc(NC(C)=O)s2)cc1

>  <GI50>
> 100 µM (inactive)

$$$$
>  <compound>
Cc1ccc(C2(N3CCCC3)OC(C)(C)c3cccc4cccc2c34)cc1 (configuration not stated)

>  <GI50>
16.9 µM (inactive)

$$$$
>  <compound>
N=C(N)NS(=O)(=O)c1ccc(NC(=O)c2cccc3c(Nc4ccc(S(=O)(=O)N=C(N)N)cc4)c4ccccc4nc23)cc1

>  <GI50>
41.1 µM (inactive)

$$$$

Please look at the items below and tell me GI50 for each one, in order.
1. COc1cccc(C(=O)N2CCc3ccccc32)c1OC
2. CN1CC[C@]23c4c5ccc(O)c4O[C@H]2C(O)CC[C@@]3(O)[C@H]1C5 (some centres not stated)
3. [O-][S+]1c2ccccc2N=C(c2ccc3ccccc3c2)CC1C1=CC=CCC1 (configuration not stated)
4. C#C[C@]1(O)CCC2C3CCc4cc(Oc5nc(F)nc(-n6c(C)nc7cc8ccccc8cc76)n5)ccc4C3CCC21C (some centres not stated)

["> 100 µM (inactive)", "> 100 µM (inactive)", "21.9 µM (inactive)", "31.6 µM (inactive)"]

Please look at the items below and tell me GI50 for each one, in order.
1. CCc1c(C)[nH]c2c1/C(=N/N=C1\CCCc3[nH]c(C)c(CC)c31)CCC2
2. CCOC(=O)CC(NC(=O)c1nc[nH]c1/N=N/N(C)C)C(=O)OCC (configuration not stated)
3. c1csc(-c2cc(-c3ccsc3)c(-c3cccs3)s2)c1

1. 28.2 µM (inactive)
2. > 100 µM (inactive)
3. > 100 µM (inactive)
